compounds and their reported cell viability
Test system: myeloid leukemia patient primary cells Pat.5
Test: cell viability (% survival relative to DMSO control); higher = less cytotoxic
Details: 10 nM; 72 h
# value in %; strip the unit string

Before answering, review these 3 worked examples.
Cc1[nH]nc(C(F)(F)F)c1Cc1sc2c(c1C(=O)N1C[C@](C)(O)CO1)c(=O)n(C)c(=O)n2C(C)C [AZD3965] = 5.69
O=C1C(SCCO)=C(SCCO)C(=O)c2ccccc21 = 98.5
CCN(CC)C(=S)SSC(=S)N(CC)CC [Disulfiram] = 76.8

Per the records, this compound ( CO[C@H]1C[C@@H]2CC[C@@H](C)[C@@](O)(O2)C(=O)C(=O)N2CCCC[C@H]2C(=O)O[C@H]([C@H](C)C[C@@H]2CC[C@@H](OC(=O)C(C)(CO)CO)[C@H](OC)C2)CC(=O)[C@H](C)/C=C(\C)[C@@H](O)[C@@H](OC)C(=O)[C@H](C)C[C@H](C)/C=C/C=C/C=C/1C [Temsirolimus] ) has cell viability equal to 11.5

* * *

System: myeloid leukemia patient primary cells Pat.15
Assay: cell viability (% survival relative to DMSO control); higher = less cytotoxic
Details: 100 nM; 72 h
cell viability values, listed per item

Example compounds with recorded cell viability:
C=CCN(C)CCCCCCOc1ccc(C(=O)c2ccc(Br)cc2)c(F)c1.O=C(O)/C=C/C(=O)O [Ro 48-8071 fumarate] = 99.4%
O=c1cc(N2CCOCC2)oc2c(-c3ccccc3)cccc12 = 97%
CN(CCOc1ccc(Cc2sc(O)nc2O)cc1)c1ccccn1 = 91.5%

Now look at this one.
Just so you know, measured cell viability for O=C1C(SCCO)=C(SCCO)C(=O)c2ccccc21 came out at 63.2%

* * *

System: HEL
Experiment: cell viability (% survival relative to DMSO control, bortezomib = 0%); higher = less cytotoxic
Conditions: 10 nM; 72 h
Structures can show the parent of a compound that is named as a salt.
Each item that follows carries a reported cell viability.
The response must be a number in % with no trailing unit.

Known cell viability results, listed for orientation:
C=CC(=O)c1ccc(O)cc1 = 90.5
CCN(CC)C(=S)SSC(=S)N(CC)CC = 86.8
CCc1c(C(=O)C(N)=O)c2c(OCC(=O)O)cccc2n1Cc1ccccc1 = 111
CCCc1nc(C)c2c(=O)nc(-c3cc(S(=O)(=O)N4CCN(CC)CC4)ccc3OCC)[nH]n12 = 111
COC(=O)c1cc2c(C(F)(F)F)cc(-c3ccccc3)cc2n1O = 91.9

Result for CCc1oc2ccccc2c1C(=O)c1cc(Br)c(O)c(Br)c1 , tested on HEL, cell viability: 101

The value of cell viability recorded for O=C(/C=C/c1ccc(O)c(O)c1)OCCc1ccccc1 when tested on HEL reads 96.8

Lab note: compound CCCCCOC(=O)Nc1nc(=O)n([C@@H]2O[C@H](C)[C@@H](O)[C@H]2O)cc1F tested on HEL; recorded cell viability was 87

Form field, cell viability with HEL, item c1cc(-c2cnn3cc(-c4ccc(OCCN5CCCCC5)cc4)cnc23)ccn1 : 105

Lab entry: HEL assay, compound Cc1cc2c(C(C)C)c(O)c(O)c(C=O)c2c(O)c1-c1c(C)cc2c(C(C)C)c(O)c(O)c(C=O)c2c1O , cell viability = 104

Tested system HEL; cell viability recorded for CCCCCCCC/C=C\CCCCCCCC(=O)Nc1ccccc1 [Octadec-9-Enoic Acid Phenylamide] was 92.9

Known value: HEL cell viability of the compound C=CCN(C)CCCCCCOc1ccc(C(=O)c2ccc(Br)cc2)c(F)c1.O=C(O)/C=C/C(=O)O [Ro 48-8071 fumarate] equals 102

cell viability of Cc1[nH]nc(C(F)(F)F)c1Cc1sc2c(c1C(=O)N1C[C@](C)(O)CO1)c(=O)n(C)c(=O)n2C(C)C , assay on HEL, is 108

# value of cell viability, HEL, item O=C1C(SCCO)=C(SCCO)C(=O)c2ccccc21 = 107

Value (cell viability, HEL) for record CN(CCOc1ccc(Cc2sc(O)nc2O)cc1)c1ccccn1 = 110

# CCN(CCO)CCCC(C)Nc1ccnc2cc(Cl)ccc12 (configuration not stated) [Hydroxychloroquine sulfate] with HEL: cell viability is 102

Entry OC[C@H]1NC[C@H](O)[C@@H](O)[C@@H]1O under HEL had cell viability of 122
